# Substrate: O=C(CO)[C@@H](O)[C@H](O)[C@H](O)CO
# experiment_description: Determination of kinetic parameters of DPEase (HPLC assay of D-psicose formed)
# Type: biochemical, Clostridium cellulolyticum
# measurement_parameters: other: 50 mM Tris-HCl buffer (pH 8.0), 0.1mM Co^2+, 5-200mM substrate, 55 °C
# Method: Kinetic parameters of DPEase variants were determined in 50 mM Tris-HCl buffer (pH 8.0) containing 0.1mM Co^2+ and 5-200mM substrate for reaction at 55 °C. The enzyme reactions were stopped after 10 min by boiling, and the amount of D-psicose was determined by the HPLC assay. Kinetic parameters, such as the Michaelis-Menten constant (Km) and turnover number (kcat) values for substrates, were obtained using the Lineweaver-Burk equation and quantification of enzyme concentration. […]
measure_name: kcat/Km

>>> experimental_value("D-psicose 3-epimerase (DPEase) from Clostridium cellulolyticum, variant G211L (Ruminiclostridium cellulolyticum H10; G211L) (protein, made in house; host or cells: Bacillus subtilis WB600 (pMA5)) MKHGIYYAYWEQEWEADYKYYIEKVAKLGFDILEIAASPLPFYSDIQINELKACAHGNGITLTVGHGPSAEQNLSSPDPDIRKNAKAFYTDLLKRLYKLDVHLIGGALYSYWPIDYTKTIDKKGDWERSVESVREVAKVAEACGVDFCLEVLNRFENYLINTAQEGVDFVKQVDHNNVKVMLDTFHMNIEEDSIGGAIRTAGSYLGHLHTLECNRKVPGRGRIPWVEIGEALADIGYNGSVVMEPFVRMGGTVGSNIKVWRDISNGADEKMLDREAQAALDFSRYVLECHKHS")
"73.2 mM^-1 min ^-1"

Hi, could you look up kcat/Km for each item in my list?
1. D-psicose 3-epimerase (DPEase) from Clostridium cellulolyticum, wild type, SEQ ID No 2 (Ruminiclostridium cellulolyticum H10) (protein, made in house; host or cells: Bacillus subtilis WB600 (pMA5)) MKHGIYYAYWEQEWEADYKYYIEKVAKLGFDILEIAASPLPFYSDIQINELKACAHGNGITLTVGHGPSAEQNLSSPDPDIRKNAKAFYTDLLKRLYKLDVHLIGGALYSYWPIDYTKTIDKKGDWERSVESVREVAKVAEACGVDFCLEVLNRFENYLINTAQEGVDFVKQVDHNNVKVMLDTFHMNIEEDSIGGAIRTAGSYLGHLHTGECNRKVPGRGRIPWVEIGEALADIGYNGSVVMEPFVRMGGTVGSNIKVWRDISNGADEKMLDREAQAALDFSRYVLECHKHS
2. D-psicose 3-epimerase (DPEase) from Clostridium cellulolyticum, variant G211S, SEQ ID No 4 (Ruminiclostridium cellulolyticum H10; G211S) (protein, made in house; host or cells: Bacillus subtilis WB600 (pMA5)) MKHGIYYAYWEQEWEADYKYYIEKVAKLGFDILEIAASPLPFYSDIQINELKACAHGNGITLTVGHGPSAEQNLSSPDPDIRKNAKAFYTDLLKRLYKLDVHLIGGALYSYWPIDYTKTIDKKGDWERSVESVREVAKVAEACGVDFCLEVLNRFENYLINTAQEGVDFVKQVDHNNVKVMLDTFHMNIEEDSIGGAIRTAGSYLGHLHTSECNRKVPGRGRIPWVEIGEALADIGYNGSVVMEPFVRMGGTVGSNIKVWRDISNGADEKMLDREAQAALDFSRYVLECHKHS
3. D-psicose 3-epimerase (DPEase) from Clostridium cellulolyticum, variant G211R (Ruminiclostridium cellulolyticum H10; G211R) (protein, made in house) MKHGIYYAYWEQEWEADYKYYIEKVAKLGFDILEIAASPLPFYSDIQINELKACAHGNGITLTVGHGPSAEQNLSSPDPDIRKNAKAFYTDLLKRLYKLDVHLIGGALYSYWPIDYTKTIDKKGDWERSVESVREVAKVAEACGVDFCLEVLNRFENYLINTAQEGVDFVKQVDHNNVKVMLDTFHMNIEEDSIGGAIRTAGSYLGHLHTRECNRKVPGRGRIPWVEIGEALADIGYNGSVVMEPFVRMGGTVGSNIKVWRDISNGADEKMLDREAQAALDFSRYVLECHKHS

["62.7 mM^-1 min ^-1", "150.6 mM^-1 min ^-1", "26.5 mM^-1 min ^-1"]

Data origin: patent EP2843044A1
